- measurement.target: hUGT1A1 (Homo sapiens, UniProt P22309)
- Sequence (P22309 26-533): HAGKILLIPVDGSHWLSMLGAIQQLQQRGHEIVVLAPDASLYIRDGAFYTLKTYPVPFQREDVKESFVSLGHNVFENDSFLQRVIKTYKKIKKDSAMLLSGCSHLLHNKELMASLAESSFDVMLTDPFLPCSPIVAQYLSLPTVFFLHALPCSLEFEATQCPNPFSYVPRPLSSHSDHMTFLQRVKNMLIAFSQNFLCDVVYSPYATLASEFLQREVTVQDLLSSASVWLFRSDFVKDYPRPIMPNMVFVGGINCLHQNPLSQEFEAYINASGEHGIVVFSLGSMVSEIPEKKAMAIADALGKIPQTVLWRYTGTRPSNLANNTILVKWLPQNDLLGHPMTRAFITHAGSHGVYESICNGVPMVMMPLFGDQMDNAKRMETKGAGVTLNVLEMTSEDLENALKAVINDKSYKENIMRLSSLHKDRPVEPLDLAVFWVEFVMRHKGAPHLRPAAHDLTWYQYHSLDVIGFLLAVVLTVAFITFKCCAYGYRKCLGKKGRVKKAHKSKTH
- run.description: UGT1A1 inhibition assay with recombinant UGT1A1 (NHPN-O-glucuronidation)
pIC50: −log10 of the molar value.
reported.endpoint: pIC50

Please report pIC50 for the following compound: `COc1cc(O)c2c(=O)cc(-c3ccc(OC)c(-c4c(O)cc(O)c5c(=O)cc(-c6ccc(O)cc6)oc45)c3)oc2c1` 6.54 to 7.00

Please report pIC50 for the following compound: `COc1ccc(-c2cc(=O)c3c(O)cc(O)cc3o2)cc1-c1c(O)cc(O)c2c(=O)cc(-c3ccc(O)cc3)oc12` 6.54 to 7.00

Please report pIC50 for the following compound: `COc1ccc(-c2cc(=O)c3c(O)cc(O)c(-c4cc(-c5cc(=O)c6c(O)cc(O)cc6o5)ccc4OC)c3o2)cc1` 6.54 to 7.00
